# Tested on: DeltatarO mutant
# procedure details: S. aureus survival, RN4220 and DeltatarO strains – OD600, teichoic acid synthesis inhibitors, primary screen (AID 463173)
# stated conditions: S. aureus RN4220 wild type/DeltatarO growth, OD600, 18 h, screened at 18.75 µg/mL (by protocol)
Screen size: about 52,000 compounds; about 4,300 (8.3%) were called active. Rule as the data show it: active = survival mostly below about 52% (no sharp cut-off); inactive = mostly above about 56%. This excerpt belongs to a sample that is enriched for actives.
# valid calls are 1 (active), -1 (inactive); nothing else

Past entries and their recorded results:
[[record]]
molecule = "COc1cc(C2c3c(-c4ccccc4O)n[nH]c3C(=O)N2Cc2ccncc2)cc(OC)c1OC (stereo unspecified)"
class_label = -1

[[record]]
molecule = "CCOc1cc(C2c3c(-c4ccccc4O)n[nH]c3C(=O)N2CCc2ccccc2)ccc1O (stereo unspecified)"
class_label = 1

[[record]]
molecule = "O=C(O)/C=C/C(=O)Nc1nnc(-c2ccccc2F)s1"
class_label = -1

[[record]]
molecule = "Cc1cc(C)nc(Sc2ccccc2)n1"
class_label = -1

[[record]]
molecule = "COC(=O)c1cc2oc3ccccc3c2n1CC(=O)Nc1ccc(OC)c(OC)c1"
class_label = -1


Now take the following molecule into account.
Task: Recorded call for CCCN1C(=O)c2[nH]nc(-c3ccc(F)cc3)c2C1c1ccc(O)c(OCC)c1 (stereo unspecified) ?
Output: -1

---

survival for assorted molecules
# Test system: DeltatarO mutant
# procedure details: S. aureus survival, RN4220 and DeltatarO strains – OD600, teichoic acid synthesis inhibitors, primary screen (AID 463173)
# stated conditions: S. aureus RN4220 wild type/DeltatarO growth, OD600, 18 h, stronger effect = lower value, screened at 18.75 µg/mL (by protocol)
Out of some 52,000 compounds screened, about 4,300 (8.3%) were called active. What follows is part of a selection rich in actives, with near analogues and random picks from the rest.
Number in %, nothing else.

[[record]]
molecule = "CN(Cc1ccccc1)C(=O)C1CCN(S(C)(=O)=O)CC1"
parameter_measured = "survival"
units = "%"
observed_measurement = 80


Task: Recorded survival of `COc1ccccc1/C=C/c1nc(C#N)c(NC2CCCCC2)o1` , please.
Output: 85

Task: Request: `CCN1CCC(N(Cc2cccc(OC)c2)C(=O)Nc2ccc(C)cc2Cl)CC1`
Output: 66

Task: Request: `COc1cccc(/C=C/c2nc(C#N)c(NC3CCCCC3)o2)c1`
Output: 69

Task: Request: `CCN1CCC(N(Cc2cccc(OC)c2)C(=O)Nc2cccc(C)c2C)CC1`
Output: 20

Task: Request: COc1cc(/C=C/c2nc(C#N)c(NC(C)c3ccccc3)o2)cc(OC)c1OC (stereo unspecified)
Output: 40

---

# Test system: DeltatarO mutant
# procedure details: S. aureus survival, RN4220 and DeltatarO strains – OD600, teichoic acid synthesis inhibitors, primary screen (AID 463173)
# stated conditions: S. aureus RN4220 wild type/DeltatarO growth, OD600, 18 h, screened at 18.75 µg/mL (by protocol)
Out of some 52,000 compounds screened, about 4,300 (8.3%) were called active. Rule as the data show it: active = survival mostly below about 52% (no sharp cut-off); inactive = mostly above about 56%. Shown is part of a subset that was picked to be rich in actives.
# valid calls are active, inactive; nothing else

Past entries and their recorded results:
[[record]]
smi = "O=C(O)c1cc2ccccc2[nH]c1=O"
class_label = "inactive"

[[record]]
smi = "Cc1cccc(NC(=O)CSc2ncc3c(n2)-c2ccccc2N(Cc2ccc(F)cc2)S3(=O)=O)c1C"
class_label = "inactive"

[[record]]
smi = "CCc1ccccc1NC(=O)CN(c1cc(C(F)(F)F)ccc1Cl)S(=O)(=O)c1ccccc1"
class_label = "active"


Task: Recorded call for `CCOC(=O)c1c(C)[nH]c(C)c1S(=O)(=O)N(C)CC(=O)Nc1cc(Cl)ccc1C` ?
Output: inactive

Task: Request: `Cc1cc(C)cc(NC(=O)CN(c2cc(C(F)(F)F)ccc2Cl)S(=O)(=O)c2ccccc2)c1`
Output: inactive
